study-target: 5-hydroxytryptamine receptor 5A (Homo sapiens) (UniProt P47898)
Sequence (P47898 whole entry, looked up): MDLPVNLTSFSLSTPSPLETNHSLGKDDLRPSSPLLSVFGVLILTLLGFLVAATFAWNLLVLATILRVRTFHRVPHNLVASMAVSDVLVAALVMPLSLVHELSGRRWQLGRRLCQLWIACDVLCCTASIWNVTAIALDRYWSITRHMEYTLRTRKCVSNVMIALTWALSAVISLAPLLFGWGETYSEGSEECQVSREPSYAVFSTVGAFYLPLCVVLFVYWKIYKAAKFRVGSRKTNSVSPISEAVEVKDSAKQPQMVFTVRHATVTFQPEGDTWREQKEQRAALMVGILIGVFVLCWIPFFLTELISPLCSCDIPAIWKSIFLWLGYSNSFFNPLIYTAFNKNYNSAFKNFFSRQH
method-notes: inverse agonism at human 5-HT5A receptor – cell-based, luminescence, full-deck HTS, counter-screen for OPRM1-OPRD1 heterodimer inverse agonist project, primary screen (AID 504634);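 note: 0% = cells with DMSO and 100% = no-cell wells with DMSO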
stated-conditions: HTR5A cell line, at 9.3 µM, hits give high values
The whole screen tested about 340,000 compounds, of which about 280 (0.082%) were called active. The list comes from a sample in which actives are over-represented; it also holds close analogues and randomly drawn compounds.
Item-by-item account of inhibition
Numbers only; they are read as %.

Exam item: Enter measured inhibition, system 5-hydroxytryptamine receptor 5A (Homo sapiens) (UniProt P47898), for the compound shown: "Cc1sc2ncn(CC(=O)NCCCC(=O)N3CCN(c4ccccc4F)CC3)c(=O)c2c1C"
Marked response: 1.47

Exam item: Enter measured inhibition, system 5-hydroxytryptamine receptor 5A (Homo sapiens) (UniProt P47898), for the compound shown: "O=C(NC(=S)Nc1cc(C(F)(F)F)ccc1N1CCOCC1)c1ccc(-c2cccc(Cl)c2)o1"
Marked response: 12.2

Exam item: Enter measured inhibition, system 5-hydroxytryptamine receptor 5A (Homo sapiens) (UniProt P47898), for the compound shown: "CCN(CC(=O)Nc1cc(Cl)ccc1C)C(=O)CSCc1ccc(C)cc1"
Marked response: -29.4

Exam item: Enter measured inhibition, system 5-hydroxytryptamine receptor 5A (Homo sapiens) (UniProt P47898), for the compound shown: "Cc1noc(C)c1-c1nc(CSc2ccc(Cl)cc2)no1"
Marked response: -15

Exam item: Enter measured inhibition, system 5-hydroxytryptamine receptor 5A (Homo sapiens) (UniProt P47898), for the compound shown: "O=C(NCc1ccncc1)C1CCN(C(=O)c2cccc(Cl)c2)CC1"
Marked response: -13.3

###

study-target: 5-hydroxytryptamine receptor 5A (Homo sapiens) (UniProt P47898)
method-notes: inverse agonism at human 5-HT5A receptor – cell-based, luminescence, full-deck HTS, counter-screen for OPRM1-OPRD1 heterodimer inverse agonist project, primary screen (AID 504634);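 note: 0% = cells with DMSO and 100% = no-cell wells with DMSO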
stated-conditions: HTR5A cell line, at 9.3 µM, hits give high values
In all, about 340,000 compounds went through this assay and about 280 (0.082%) were called active. Many of the other results were omitted from the sample, so actives are more common in it than they were.
Item-by-item account of inhibition
Numbers only; they are read as %.

Consider the reported inhibition for these compounds:
                                   compound  reported_value
0        Cc1c(-c2ccccc2)cn2c1-c1ccc(C)n1CC2           -5.32
1  CCCCNC(=O)C1CCC(=O)N1CCc1ccccc1 (configuration not stated)            4.38
2  CN(C(=O)COC(=O)CCCc1c[nH]c2ccccc12)c1c(N)n(Cc2ccccc2)c(=O)[nH]c1=O            20.6
3           CCCCN(CC)C(=O)c1ccccc1Oc1ccccc1            4.41

Exam item: Give inhibition for the following compound: "CC(=O)c1ccc(N2CCN(C(=O)c3ccc(Cl)c(S(=O)(=O)NC4CC4)c3)CC2)c(F)c1"
Marked response: -4.11

Exam item: Give inhibition for the following compound: "Cc1nc(N)c(Br)c(C)c1Br"
Marked response: -6.08

Exam item: Give inhibition for the following compound: "CC(C)OC(=O)Cn1nc(C(F)(F)F)c2c1CCCC2"
Marked response: -22

The measurements presented in this section are drawn from PubChem BioAssay AID504634.
